Assay: Plasma pharmacokinetics of 5-FU in rats with or without MMP-8 inhibitor before whole pelvic irradiation 2 Gy
Type: in vivo, Sprague-Dawley rats
Conditions: Sprague-Dawley, rat, plasma, iv, 100 mg/kg, plasma, 5-FU 100 mg/kg i.v., whole pelvic irradiation 2 Gy with solvent and MMP-8 inhibitor (10 mg/kg, 2 h before irradiation)
test.readout: clearance (mL/min/kg)
Give the value in mL/min/kg but do not write mL/min/kg after it.

Problem: Endpoint output: clearance of O=c1[nH]cc(F)c(=O)[nH]1 [5-FU, 5-fluorouracil] . Value?
Solution: 25.4

====

Test: Bile pharmacokinetics of 5-FU in rats after whole pelvic irradiation
Assay type: in vivo, Sprague-Dawley rats
Settings: Sprague-Dawley, rat, iv, 100 mg/kg, 5-FU 100 mg/kg i.v., whole pelvic irradiation 2 Gy
test.readout: half-life (min)
Dear colleague, please return just the value in min, with no unit written.

Problem: // half-life lookup, key: `O=c1[nH]cc(F)c(=O)[nH]1`
Solution: 12.9
